These entries and their values trace back to the supplement of paper PMC12667976.

B1: library; numbered along this chain (parent)
chain: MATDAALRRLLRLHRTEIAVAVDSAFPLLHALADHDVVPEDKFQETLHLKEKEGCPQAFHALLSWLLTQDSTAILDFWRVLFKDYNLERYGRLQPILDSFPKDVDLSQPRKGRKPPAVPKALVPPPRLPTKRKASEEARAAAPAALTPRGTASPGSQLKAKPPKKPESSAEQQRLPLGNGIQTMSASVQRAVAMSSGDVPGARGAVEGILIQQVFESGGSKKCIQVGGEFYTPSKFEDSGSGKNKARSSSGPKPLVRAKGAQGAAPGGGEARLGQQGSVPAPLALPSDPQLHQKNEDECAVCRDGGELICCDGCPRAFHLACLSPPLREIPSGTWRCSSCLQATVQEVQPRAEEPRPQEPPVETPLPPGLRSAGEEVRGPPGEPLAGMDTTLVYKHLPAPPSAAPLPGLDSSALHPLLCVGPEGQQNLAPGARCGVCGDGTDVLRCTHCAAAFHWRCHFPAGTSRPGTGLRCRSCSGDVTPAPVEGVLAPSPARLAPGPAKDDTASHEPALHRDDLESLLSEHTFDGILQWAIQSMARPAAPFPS

# Variants of: B1
# Experiment description: AIRE transcriptional activation functional score (insulin promoter-GFP; nonsense median 0, synonymous median 1) (normalised score); higher = higher AIRE activity (more reporter activation)
# Assay setup: with insulin promoter-GFP reporter in HEK293
Measurement name: AIRE transcriptional activation functional score
Kindly provide the number alone.

# example entries with known answers
| Mutant label | Recorded number |
| --- | --- |
| G467N | 0.68 |
| Q182V | -0.0151 |
| K42E | -0.598 |
| H396P | 1.02 |
| A284P | 0.905 |

Input line: If you can, please state the reported AIRE transcriptional activation functional score value of "L128G" .
Output line: 1.51
